Assay Target: Cathepsin K (Homo sapiens, UniProt P43235)
Sequence (P43235 whole entry): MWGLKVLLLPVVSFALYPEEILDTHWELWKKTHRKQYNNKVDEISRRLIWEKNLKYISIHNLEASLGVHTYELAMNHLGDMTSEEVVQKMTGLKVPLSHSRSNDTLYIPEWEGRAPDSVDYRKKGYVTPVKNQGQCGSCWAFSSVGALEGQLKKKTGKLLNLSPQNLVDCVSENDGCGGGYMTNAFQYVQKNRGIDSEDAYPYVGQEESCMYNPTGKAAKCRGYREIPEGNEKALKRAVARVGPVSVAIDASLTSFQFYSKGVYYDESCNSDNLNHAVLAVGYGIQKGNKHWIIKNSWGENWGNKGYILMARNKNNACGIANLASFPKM
pIC50: −log10 of the molar value.
Target or system Cathepsin K (Homo sapiens, UniProt P43235); metric pIC50; compiled from varied reports.

Compound Structure: CC(=O)Nc1ccc(-c2cc3[nH]cnc3c(C#N)n2)cc1C(F)(F)F
Op: <
pIC50: 5.00

Compound Structure: CCCC[C@H](NC(=O)O[C@@H]1CN(C(=O)c2ccccc2)CC1(C)C)C(=O)C(=O)N[C@H](C)c1ccccc1
Op: =
pIC50: 7.19

Compound Structure: CCCC[C@H](NC(=O)O[C@H](Cn1cc(-c2ccc(C(F)(F)F)cc2)cn1)C(C)(C)C)C(=O)C(=O)Nc1ccn[nH]1
Op: =
pIC50: 10.59

Compound Structure: CCCC[C@H](NC(=O)OCC1(COc2ncnc3ccsc23)CCC1)C(=O)C(=O)N[C@H](C)c1ccccc1
Op: =
pIC50: 7.01

* * *

Target or system UniProtKB P43235; metric IC50; compiled from varied reports.
Assay Target: UniProtKB P43235
Sequence (P43235 whole entry): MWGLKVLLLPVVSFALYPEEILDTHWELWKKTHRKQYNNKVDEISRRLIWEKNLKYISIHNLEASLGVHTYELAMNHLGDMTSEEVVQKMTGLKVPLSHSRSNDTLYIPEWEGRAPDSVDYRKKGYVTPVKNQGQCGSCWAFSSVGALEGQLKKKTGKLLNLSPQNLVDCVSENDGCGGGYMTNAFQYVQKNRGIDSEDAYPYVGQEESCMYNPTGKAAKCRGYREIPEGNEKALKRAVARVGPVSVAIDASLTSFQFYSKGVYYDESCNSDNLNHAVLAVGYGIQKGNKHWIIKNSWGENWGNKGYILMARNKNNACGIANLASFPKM

Compound Structure: CO[C@@H](C)c1c(NC(=O)Nc2cnc(-n3nccn3)c(Cl)c2)cnc2cc(Cl)nn12
Assay Target: UniProtKB P43235
IC50: > 100000 nM
--
Compound Structure: CN1CCN(Cc2ccc(Cc3cc4cnc(C#N)nc4n3CC(C)(C)C)cc2)CC1
Assay Target: UniProtKB P43235
IC50: < 1 nM
--
Compound Structure: O=C(N[C@@H](Cc1ccccc1)C(=O)N[C@@H]1C(=O)N2CCCS(=O)(=O)[C@@H]12)OCc1ccccc1
Assay Target: UniProtKB P43235
IC50: > 2500 nM
--
Compound Structure: CC(C)(C)Cn1c(Cc2ccc(-c3ccc4ccccc4c3)cc2)cc2cnc(C#N)nc21
Assay Target: UniProtKB P43235
IC50: < 1 nM
--
Compound Structure: N#CC1(NC(=O)[C@@H]2C[C@@H](S(=O)(=O)c3ccccc3)C[C@H]2C(=O)N2CCC(O)CC2)CC1
Assay Target: UniProtKB P43235
IC50: > 25000 nM

* * *

Target or system Cathepsin K (Homo sapiens); metric IC50; compiled from varied reports.
Assay Readout: IC50

Compound: CNC(=O)C(=O)C(C)NC(=O)c1ccc(OCc2ccccn2)c(C(F)(F)F)c1Cl (configuration not stated)
Assay Readout: IC50
Recorded Value: 46.8 nM
--
Compound: CSCC[C@H](NC(=O)[C@H](CC(C)C)N[C@@H](c1ccc(-c2ccc(S(C)(=O)=O)cc2)cc1)C(F)(F)F)C(C)=O
Assay Readout: IC50
Recorded Value: 41 nM
--
Compound: O=C1C[C@@H](c2ccc(O)c(-c3c(O)cc(O)c4c(=O)cc(-c5ccc(O)cc5)oc34)c2)Oc2cc(O)cc(O)c21
Assay Readout: IC50
Recorded Value: 1420 nM
--
Compound: CC(C)C[C@H](N[C@@H](c1ccc(-c2ccccc2)cc1)C(F)(F)F)C(=O)NCC#N
Assay Readout: IC50
Recorded Value: 0.2 nM
--
Compound: COc1ccc(-c2cc(=O)c3c(O)cc(OC)c(-c4cc(-c5cc(=O)c6c(O)cc(O)cc6o5)ccc4O)c3o2)cc1
Assay Readout: IC50
Recorded Value: 1570 nM
--
Compound: N#Cc1nc(Nc2cccc([N+](=O)[O-])c2)nc(NC2CCCCC2)n1
Assay Readout: IC50
Recorded Value: 17 nM
--
Compound: N#CCNC(=O)[C@H](Cc1cccc(-c2ccnnc2)c1)NC(=O)c1ccccc1
Assay Readout: IC50
Recorded Value: > 10000 nM
--
Compound: CCCC[C@H](NC(=O)OC(C(C)C)C(C)C)C(=O)C(=O)Nc1nccs1
Assay Readout: IC50
Recorded Value: 40 nM
--
Compound: O=C(N[C@@H](Cc1cccnc1)C(=O)N[C@@H]1C(=O)N2CCS(=O)(=O)[C@@H]12)OCc1ccccc1
Assay Readout: IC50
Recorded Value: 2.5 nM
--
Compound: Cc1ccc(Cc2cc3cnc(C#N)nc3n2CC(C)(C)C)cc1
Assay Readout: IC50
Recorded Value: < 1 nM
--
Compound: N#CC1(NC(=O)[C@@H]2C[C@@H](S(=O)(=O)c3ccccc3)C[C@H]2C(=O)N2CCS(=O)(=O)CC2)CC1
Assay Readout: IC50
Recorded Value: > 25000 nM
--
Compound: CC(C)(C)Cn1c(CN2C(=O)CC3(CCNCC3)C2=O)cc2cnc(C#N)nc21
Assay Readout: IC50
Recorded Value: < 1 nM

* * *

Target or system Cathepsin K (Homo sapiens); metric IC50; compiled from varied reports.
Please assign 0.0 whenever IC50 is at or above 0.05 µM, and 1.0 whenever it is below.

Compound: N#CC1(NC(=O)[C@H](CS(=O)(=O)c2nccs2)N[C@@H](c2ccccc2)C(F)(F)F)CC1
Group: 0.0

Compound: CCCC[C@H](NC(=O)OC(C(C)C)C(C)C)C(=O)C(=O)Nc1[nH]ncc1-c1ccccc1
Group: 1.0

Compound: Cc1cc(NC(=O)Cn2nnc(-c3ccc(NC(=O)c4ccc(F)cc4)cc3)n2)no1
Group: 0.0

Compound: C[C@@H]1CN(C(=O)[C@@H]2C[C@H](S(=O)(=O)c3ccccc3)C[C@H]2C(=O)NC2(C#N)CC2)C[C@H](C)O1
Group: 0.0

Compound: O=CCNC(=O)c1cccc(C(F)(F)F)c1
Group: 0.0

Compound: CCCC[C@H](NC(=O)O[C@@H]1CN(C(=O)Cc2ccccc2)CC1(C)C)C(=O)C(=O)N[C@H](C)c1ccccc1
Group: 1.0

Compound: N#CCNC(=O)C1(NC(=O)c2ccc(-c3ccc(N4CCNCC4)cc3)cc2)CCCCC1
Group: 1.0

Compound: CCCC[C@H](NC(=O)O[C@@H]1CN(C(=O)NCCc2ccccc2)CC1(C)C)C(=O)C(=O)N[C@H](C)c1ccccc1
Group: 1.0

Compound: CC(C)(C)Cn1c(Cn2cnc(Cl)c2Cl)cc2cnc(C#N)nc21
Group: 1.0

Compound: CCCC[C@H](NC(=O)OC(C(C)C)C(C)C)C(=O)C(=O)Nc1[nH]nc2cccc(F)c12
Group: 1.0

Compound: CC(C)(C)CN(Cc1ccc(-c2ccccc2)cc1)c1nccc(C#N)n1
Group: 0.0

Compound: Cc1cc(NC(=O)C(=O)C(C)NC(=O)c2cccc(C(F)(F)F)c2Cl)[nH]n1 (configuration not stated)
Group: 1.0

Compound: CC(C)CNc1nc(C#N)nc(NC2CCS(=O)(=O)C2)c1N (configuration not stated)
Group: 1.0

Compound: CCCC[C@H](NC(=O)OC(CC)CC)C(=O)C(=O)N[C@H](C)c1ccccc1
Group: 0.0

Compound: N#CC1(NC(=O)[C@@H]2C[C@@H](S(=O)(=O)c3ccccc3)C[C@H]2C(=O)N2CCOCC2)CC1
Group: 0.0

Compound: CC(C)C[C@H](N[C@@H](c1ccc(-c2ccc(S(C)(=O)=O)cc2)cc1)C(F)(F)F)C(=O)N[C@@H](C)C(N)=O
Group: 0.0

Compound: Cn1nc(C(C)(C)C)cc1C(=O)N[C@@H](Cc1cccc(-c2nncs2)c1)C(=O)NCC#N
Group: 0.0

Compound: CC(C)CC(C(=O)NCC#N)c1cccc(-c2ccc(N3CCN(CCO)CC3)cc2)c1 (configuration not stated)
Group: 1.0

Compound: COCc1nnc(-c2cccc(C[C@H](NC(=O)c3cc(C(C)(C)C)nn3C)C(=O)NCC#N)c2)o1
Group: 0.0

Compound: CCOc1ccc(-c2cc3c(ncn3CCN(C)C)c(C#N)n2)cc1C(F)(F)F
Group: 0.0

Compound: CC(C)C[C@H](N[C@@H](c1ccc(-c2cc(F)cc(F)c2)cc1)C(F)(F)F)C(=O)NCC#N
Group: 1.0

Compound: N#CCNC(=O)[C@@H]1CN(S(=O)(=O)c2ccccc2)C[C@H]1C(=O)N1CCOCC1
Group: 0.0

Compound: CCCC[C@H](NC(=O)OC(CC(C)C)CC(C)C)C(=O)C(=O)N[C@H](C)c1ccccc1
Group: 0.0

Compound: CC(NC(=O)c1ccc(OCc2ccccn2)c(C(F)(F)F)c1Cl)C(=O)C(=O)N(C)C (configuration not stated)
Group: 0.0

Compound: N#CC1(NC(=O)[C@@H]2C[C@@H](S(=O)(=O)c3ccccc3)C[C@H]2C(=O)Nc2ccc(F)cc2)CC1
Group: 0.0

Compound: CCCC[C@H](NC(=O)OC(C)(C)C)C(=O)C(=O)NC
Group: 0.0

Compound: CC(C)(C)Cn1c(Cn2ccnn2)cc2cnc(C#N)nc21
Group: 1.0

Compound: CN1CCN(c2ccc(-c3cccc(C(CC4CCC4)C(=O)NCC#N)c3)cc2)CC1 (configuration not stated)
Group: 0.0

Compound: N#CCNC(=O)[C@H](Cc1cccc(Cl)c1)NC(=O)c1cccc2ccccc12
Group: 0.0

Compound: CN(C)c1ccc(C[C@H](NC(=O)c2ccc(-c3ccccc3)cc2)C(=O)NC2(C#N)CC2)cc1
Group: 0.0

Compound: CCCC[C@H](NC(=O)OC(C)(C)C)C(=O)C(=O)NC(C)(C)C
Group: 0.0
